- Experimental system: muscarinic receptors
- Procedure details: Binding, competition with 3H-oxotremorine M (3H-OXO-M), agonist binding (rat brain membranes)
- Condition label: 3 nM 3H-oxotremorine M, 15 minutes room temperature, mean of three experiments
pIC50: −log10 of the molar value. Counter-ions that a name gives are not always drawn.
Measurement label: pIC50

[[record]]
compound = "COC(=O)C1CCC(N)=NC1.Cl (stereo not drawn) [Example 14, HCl]"
measurement_label = "pIC50"
lt_gt_eq = "="
measurement = 6.94

[[record]]
compound = "COC(=O)C1CN=CNC1 (stereo not drawn) [Example 1, Hydrobromide]"
measurement_label = "pIC50"
lt_gt_eq = "="
measurement = 7.05

[[record]]
compound = "O=C(OCc1ccccc1)C1CN=CNC1 (stereo not drawn) [Example 5, Hydrochloride]"
measurement_label = "pIC50"
lt_gt_eq = "="
measurement = 5.96

[[record]]
compound = "COC(=O)C1CCCC(N)=N1 (stereo not drawn) [Example 17, HCL]"
measurement_label = "pIC50"
lt_gt_eq = "<"
measurement = 5.00

[[record]]
compound = "CC(C)OC(=O)C1CN=CNC1 (stereo not drawn) [Example 4, Hydrochloride]"
measurement_label = "pIC50"
lt_gt_eq = "="
measurement = 5.75

[[record]]
compound = "CC(=O)OC1CN=C(C(F)(F)F)NC1.Cl (stereo not drawn) [Example 18, HCl]"
measurement_label = "pIC50"
lt_gt_eq = "<"
measurement = 5.00


* * *

Catalogue of IC50 readings, one per entry.
- Experimental system: muscarinic receptors
- Procedure details: Binding to muscarinic receptors, competition with [3H]-QNB (rat brain membranes)
- Condition label: 50 pM [3H]-QNB, rat brain membranes, pH 7.4, 2.0 hr room temperature; mean of three experiments
Structures can show the parent of a compound that is named as a salt.
Measurement label: IC50 (µM)

[[record]]
compound = "CC(C)OC(=O)C1CN=CNC1 (stereo not drawn) [Example 4, Hydrochloride]"
experimental_system = "muscarinic receptors"
measurement_label = "IC50"
measurement = 3.5

[[record]]
compound = "CCOC(=O)C1CN=CNC1 (stereo not drawn) [Example 2, Hydrochloride]"
experimental_system = "muscarinic receptors"
measurement_label = "IC50"
measurement = 1.9

[[record]]
compound = "COC(=O)C1CCN=C(N)C1 (stereo not drawn) [Example 16, HCL]"
experimental_system = "muscarinic receptors"
measurement_label = "IC50"
measurement = 130


* * *

- Experimental system: muscarinic receptors
- Procedure details: Binding, competition with 3H-oxotremorine M (3H-OXO-M), agonist binding (rat brain membranes)
- Condition label: 3 nM 3H-oxotremorine M, 15 minutes room temperature, mean of three experiments
pIC50: −log10 of the molar value. Counter-ions that a name gives are not always drawn.
If the reported pIC50 equals or exceeds 7, assign yes. If not, assign no.

[[record]]
molecule = "CC(=O)OC1CN=C(C)NC1 (stereo not shown) [Example 19]"
assigned_category = "no"

[[record]]
molecule = "Cc1noc(C2CN=CNC2)n1 (stereo not shown) [Example 9, trifluoroacetate]"
assigned_category = "yes"

[[record]]
molecule = "CCCOC(=O)C1CN=CNC1 (stereo not shown) [Example 3, Hydrochloride]"
assigned_category = "no"

[[record]]
molecule = "COC(=O)C1CCCN=C1N (stereo not shown) [Example 15, HCl]"
assigned_category = "no"

[[record]]
molecule = "CC(=O)OC1CN=CNC1.Cl (stereo not shown) [Example 10, HCl]"
assigned_category = "no"

[[record]]
molecule = "COC(=O)C1=CNCN(C)C1 [Example 11, HCl]"
assigned_category = "no"


* * *

- Experimental system: muscarinic receptors
- Procedure details: Binding to muscarinic receptors, competition with [3H]-QNB (rat brain membranes)
- Condition label: 50 pM [3H]-QNB, rat brain membranes, pH 7.4, 2.0 hr room temperature; mean of three experiments
pIC50: −log10 of the molar value. Counter-ions that a name gives are not always drawn.
If the reported pIC50 equals or exceeds 5, assign Fulfilled. If not, assign Not fulfilled.

[[record]]
compound = "Cc1noc(C2CN=CNC2)n1 (centres unmarked) [Example 9, trifluoroacetate]"
experimental_system = "muscarinic receptors"
assigned_category = "Fulfilled"

[[record]]
compound = "CC(=O)OC1CN=C(C)NC1 (centres unmarked)"
experimental_system = "muscarinic receptors"
assigned_category = "Not fulfilled"

[[record]]
compound = "COC(=O)C1CCCC(N)=N1 (centres unmarked) [Example 17, HCL]"
experimental_system = "muscarinic receptors"
assigned_category = "Not fulfilled"

[[record]]
compound = "C#CCOC(=O)C1CN=CNC1 (centres unmarked) [Example 6, Hydrochloride]"
experimental_system = "muscarinic receptors"
assigned_category = "Fulfilled"

[[record]]
compound = "COC(=O)C1=CNCN(C)C1 [Example 11, HCl]"
experimental_system = "muscarinic receptors"
assigned_category = "Not fulfilled"

[[record]]
compound = "COC(=O)C1CCCN=C1N (centres unmarked) [Example 15, HCl]"
experimental_system = "muscarinic receptors"
assigned_category = "Not fulfilled"

[[record]]
compound = "CC(=O)OC1CN=CNC1.Cl (centres unmarked) [Example 10, HCl]"
experimental_system = "muscarinic receptors"
assigned_category = "Not fulfilled"

[[record]]
compound = "CCCOC(=O)C1CN=CNC1 (centres unmarked) [Example 3, Hydrochloride]"
experimental_system = "muscarinic receptors"
assigned_category = "Fulfilled"


* * *

- Tested on: muscarinic receptors linked to M1, M3, M5 receptors
- Procedure details: PI Cortex: phosphoinositide turnover in the cortex (brain slices)
- Assay type: cell-based, Male Long Evans rats
- Condition label: Rattus norvegicus, dose 100 μM, read-out: PI Cortex, maximal % response above baseline
Counter-ions that a name gives are not always drawn.
Measurement label: activation at 100 µM (%)

[[record]]
compound = "CCCOC(=O)C1CN=CNC1 (centres unmarked) [Example 3, Hydrochloride]"
measurement_label = "activation at 100 µM"
measurement = 7.1

[[record]]
compound = "COC(=O)C1CCC(N)=NC1.Cl (centres unmarked) [Example 14, HCl]"
measurement_label = "activation at 100 µM"
measurement = 265

[[record]]
compound = "COC(=O)C1CCCC(N)=N1 (centres unmarked) [Example 17, HCL]"
measurement_label = "activation at 100 µM"
measurement = 5.9

[[record]]
compound = "COC(=O)C1CN=CNC1 (centres unmarked) [Example 1, Hydrobromide]"
measurement_label = "activation at 100 µM"
measurement = 131

[[record]]
compound = "CC(C)OC(=O)C1CN=CNC1 (centres unmarked) [Example 4, Hydrochloride]"
measurement_label = "activation at 100 µM"
measurement = 7.2

[[record]]
compound = "CCOC(=O)C1CN=CNC1 (centres unmarked) [Example 2, Hydrochloride]"
measurement_label = "activation at 100 µM"
measurement = 150

[[record]]
compound = "O=C(OCc1ccccc1)C1CN=CNC1 (centres unmarked) [Example 5, Hydrochloride]"
measurement_label = "activation at 100 µM"
measurement = 3.5

[[record]]
compound = "Cc1noc(C2CN=CNC2)n1 (centres unmarked) [Example 9, trifluoroacetate]"
measurement_label = "activation at 100 µM"
measurement = 700

[[record]]
compound = "C#CCOC(=O)C1CN=CNC1 (centres unmarked) [Example 6, Hydrochloride]"
measurement_label = "activation at 100 µM"
measurement = 230

[[record]]
compound = "COC(=O)C1CCN=C(N)C1 (centres unmarked) [Example 16, HCL]"
measurement_label = "activation at 100 µM"
measurement = 9

[[record]]
compound = "COC(=O)C1CCCN=C1N (centres unmarked) [Example 15, HCl]"
measurement_label = "activation at 100 µM"
measurement = -5.5


* * *

Catalogue of pIC50 readings, one per entry.
- Experimental system: M1 receptors (Rattus norvegicus, UniProt P08482)
- Sequence (P08482 1-460): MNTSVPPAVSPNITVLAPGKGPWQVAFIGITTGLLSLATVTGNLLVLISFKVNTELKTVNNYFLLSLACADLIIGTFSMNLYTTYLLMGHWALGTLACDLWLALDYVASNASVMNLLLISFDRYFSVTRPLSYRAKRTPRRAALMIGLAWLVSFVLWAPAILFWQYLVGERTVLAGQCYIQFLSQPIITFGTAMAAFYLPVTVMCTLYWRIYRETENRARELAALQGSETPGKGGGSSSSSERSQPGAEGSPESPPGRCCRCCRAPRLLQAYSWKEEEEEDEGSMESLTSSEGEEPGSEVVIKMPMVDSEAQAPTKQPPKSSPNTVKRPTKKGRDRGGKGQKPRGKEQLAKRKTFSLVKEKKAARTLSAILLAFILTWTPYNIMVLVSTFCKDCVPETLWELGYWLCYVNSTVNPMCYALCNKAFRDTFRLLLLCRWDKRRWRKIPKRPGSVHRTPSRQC
pIC50: −log10 of the molar value. Where a name gives a salt, the structure may show the parent alone.
Measurement label: pIC50

[[record]]
compound = "CC(=O)OC1CN=C(C)NC1 (stereo not drawn) [Example 19]"
lt_gt_eq = "<"
measurement = 5.00

[[record]]
compound = "COC(=O)C1CCCN=C1N (stereo not drawn) [Example 15, HCl]"
lt_gt_eq = "="
measurement = 4.89

[[record]]
compound = "O=C(OCc1ccccc1)C1CN=CNC1 (stereo not drawn) [Example 5, Hydrochloride]"
lt_gt_eq = "="
measurement = 5.90

[[record]]
compound = "COC(=O)C1=CNCN(C)C1 [Example 11, HCl]"
lt_gt_eq = "="
measurement = 4.82

[[record]]
compound = "COC(=O)C1CCC(N)=NC1.Cl (stereo not drawn) [Example 14, HCl]"
lt_gt_eq = "="
measurement = 6.11

[[record]]
compound = "CCCOC(=O)C1CN=CNC1 (stereo not drawn) [Example 3, Hydrochloride]"
lt_gt_eq = "="
measurement = 5.88

[[record]]
compound = "COC(=O)C1CCCC(N)=N1 (stereo not drawn) [Example 17, HCL]"
lt_gt_eq = "<"
measurement = 5.00

[[record]]
compound = "CC(=O)OC1CN=CNC1.Cl (stereo not drawn) [Example 10, HCl]"
lt_gt_eq = "="
measurement = 5.00

[[record]]
compound = "CC(=O)OC1CN=C(C(F)(F)F)NC1.Cl (stereo not drawn) [Example 18, HCl]"
lt_gt_eq = "<"
measurement = 5.00

